This collection of values is drawn from ChEMBL document CHEMBL1201862.

- Tested on: OVCAR-4
- Assay Info: NCI tumour cell line growth inhibition, 48 h
Activity calls are given as the source filed them. No stated cut-off is given here; in the data, active = GI50 up to about 1.1 µM and inactive = higher.

Molecule	GI50
CC1(C)OC2C(CO)OC(N/C(=N/C#N)Oc3ccccc3)C2O1 (configuration not stated)	> 100 µM (inactive)
O=S(=O)(SC1=NCCN1)c1cccc2ccccc12	26.2 µM (inactive)
O=C(/C=C/c1csc(-c2ccccc2)n1)NCc1ccc(C(=O)NCc2ccccc2)cc1	> 100 µM (inactive)
CN1CCOC(c2ccccc2)O1 (configuration not stated)	> 100 µM (inactive)
CCOC(=O)N/N=C(\Cc1ccccc1)OCC	> 100 µM (inactive)
SCCSCCCSCCS	14 µM (inactive)
N#CCCN(c1ccc(/C=N/c2ccccc2)cc1)S(=O)(=O)c1ccccc1	> 100 µM (inactive)
CNC(=O)/C=C/C1=CN2C(=O)c3ccc(C)c(O)c3NC(OC)C2C1 (configuration not stated)	< 0.0132 µM (active)
CCOC(=O)C1C=C2O[C@@H]3OC4(CCCCC4)O[C@@H]3C2[C@H]2C(=O)C=CC(=O)[C@@]12C(=O)OC (some centres not stated)	9.31 µM (inactive)
COc1ccccc1NS(=O)(=O)c1cc(C(C)(C)C)ccc1OCCOc1ccc(C(C)(C)C)cc1S(=O)(=O)Nc1ccccc1OC	> 100 µM (inactive)
CC1(c2nc3cc(Cl)c(Cl)cc3[nH]2)CCC(CO)C(C)(C)O1 (configuration not stated)	25.1 µM (inactive)
O=C(OCc1ccccc1)C(Cc1ccc(OCc2ccccc2)cn1)NC(=O)C(F)(F)F (configuration not stated)	> 100 µM (inactive)
NNC(=O)c1c(SCc2ccccc2)nc2c3ccccc3ccn12	14.5 µM (inactive)
ClCC[N+]12CC[N+](CCCl)(CC1)C2	> 100 µM (inactive)
O=C1C(Cl)C(c2ccc(O)cc2)N1n1cnc2ccccc2c1=O (configuration not stated)	25.5 µM (inactive)
O=C(O)CNCP(=O)(O)O [GLYPHOSATE]	> 100 µM (inactive)
CC1CC(C)[C@H](O)C([C@H](O)CC2CC(=O)N(C)C(=O)C2)C1 (some centres not stated)	> 100 µM (inactive)
COC(=O)C(Cc1ccc(OC)cc1O)NC(=O)OC(C)(C)C (configuration not stated)	> 100 µM (inactive)
COC[C@@H]1[C@H]2OC(C)(C)O[C@H]2C(=O)N1C(=O)c1ccc(OC)cc1	> 100 µM (inactive)
O=C1CC(CC(O)[C@@H]2CCCC[C@@H]2O)CC(=O)N1c1ccccc1 (some centres not stated)	> 100 µM (inactive)
CC(=O)Oc1ccn2nc(C)c(Cc3c(C)nn4ccc(OC(C)=O)cc34)c2c1	> 100 µM (inactive)
Oc1c(O)c(Cc2ccccc2)c(Cc2ccccc2)c(Cc2ccccc2)c1Cc1ccccc1	> 10 µM (inactive)

----------
Consider the following compounds and their measured GI50 readings.
- Tested on: MDA-N
- Assay Info: NCI tumour cell line growth inhibition, 48 h
Active and inactive are the calls of the source. Rule as the data show it: active = GI50 up to about 1.1 µM and inactive = higher.
Readout Type: GI50

Compound	Test System	Result Value
NC(CCCCNC(=O)C(Cc1ccccc1)NC(=O)OCc1ccccc1)C(=O)NC(CCCCNC(=O)C(Cc1ccccc1)NC(=O)OCc1ccccc1)C(=O)NC(CCCCNC(=O)C(Cc1ccccc1)NC(=O)OCc1ccccc1)C(=O)NC(CCCCNC(=O)C(Cc1ccccc1)NC(=O)OCc1ccccc1)C(=O)NC(CCCCNC(=O)C(Cc1ccccc1)NC(=O)OCc1ccccc1)C(=O)NC(CCCCNC(=O)C(Cc1ccccc1)NC(=O)OCc1ccccc1)C(=O)O (stereo unspecified)	MDA-N	> 100 µM (inactive)
CC(C)[Si]1(C(C)C)OCC2OC(N3C(=O)NC(=O)C[C@@H]3C(O)c3ccccc3)CC2O[Si](C(C)C)(C(C)C)O1 (stereo partly specified)	MDA-N	4.3 µM (inactive)
C=C1CC(Cn2cc(C)c(=O)[nH]c2=O)(c2ccc(-c3ccccc3)cc2)OC1=O (stereo unspecified)	MDA-N	1.33 µM (inactive)
CC(C)C1OC(=O)C=C1Sc1ccccc1 (stereo unspecified)	MDA-N	> 100 µM (inactive)
CCCCCCCCCCCCCCCCCCOCC(COP(=O)([O-])OCC[N+](C)(C)C)OC (stereo unspecified) [EDELFOSINE]	MDA-N	> 69.3 µM (inactive)
CSc1ccc(-c2cc(-c3nc4ccccc4[nH]3)no2)cc1	MDA-N	26.9 µM (inactive)

----------
- System: NCI-H460
- Assay Info: NCI tumour cell line growth inhibition, 48 h
Calls of active or inactive are those of the source. Rule as the data show it: active = GI50 up to about 1.1 µM and inactive = higher.
Outcome codes: true (active), false (inactive)

Compound	Group Label
CN(CCNC(=O)c1c[nH]c2c1Cc1ccccc1-2)CCNC(=O)c1c[nH]c2c1Cc1ccccc1-2	false
Cn1/c(=N\N=C2\C=C3CCCCC3(C)CC2)sc2ccccc21 (stereo not given)	false
CC(=O)NC1C(OCc2ccccc2)OC(CO)C(O)C1OC(C)C(=O)N[C@@H](C)C(=O)N[C@H](CCC(=O)OCCNc1c2ccccc2nc2cccc([N+](=O)[O-])c12)C(N)=O (stereo not given in full)	true
CN1CCCC2[C@@H]3CCC4c5nonc5CC[C@]4(C)C3CC[C@@]21C (stereo not given in full)	false
NCCC1CN(C(=O)OCc2ccccc2)c2ccccc21 (stereo not given)	false
Nc1ccc(Cn2ccc3c4c(N)nc(N)nc4ccc32)cc1	true
CN1CCOC1(C)CO (stereo not given)	false
[N-]=[N+]=NC[C@H]1OCO[C@H](CN=[N+]=[N-])[C@H]2OCCOCCOc3ccccc3OCCOCCO[C@@H]21	false
CC(=O)C(=C(I)I)c1ccccc1	false
COC(=O)c1ccccc1CC1Cc2ccc3c(c2C1=O)CCC3 (stereo not given)	false

----------
- Test system: ACHN
- Assay Info: NCI tumour cell line growth inhibition, 48 h
Activity calls are given as the source filed them. Cut-off read from the data, not from the text of the source: active = GI50 up to about 1.1 µM and inactive = higher. *1 amine or outer side, *2 acyl side, *3 side chain or, on linkers, in order; H or OH if unused. Where a SMILES comes first, the peptide text is derived from it. [ ]: non-standard residue; d: D form. The star is where a group is joined. ξ: configuration not given here. X26 = O=C([C@H]1CCC[C@H]1N[*:1])[*:2]; ξW = NC(Cc1c[nH]c2ccccc12)C(=O)O; ξF = NC(Cc1ccccc1)C(=O)O; Boc = CC(C)(C)OC(=O)*; ξK = NCCCCC(N)C(=O)O; ξT = CC(O)C(N)C(=O)O; tBu = CC(C)(C)*
Outcome codes: active, inactive

Molecule	Test System	Group Label
CCN(CC)c1ccc(/C=C/c2ccnc3ccccc23)cc1	ACHN	inactive
Cc1c2c(OCC(O)CN3CCN(c4ccccc4)CC3)nn(C)c(=O)c2c(C)n1-c1ccccc1 (stereo not drawn)	ACHN	inactive
OCC1OC(NCCNCCNC2OC(CO)C(O)C(O)C2O)C(O)C(O)C1O (stereo not drawn)	ACHN	inactive
CC1(C)CC(=O)C(=CNC(=O)c2ccncc2)C(=O)C1	ACHN	inactive
C[C@@H](Br)[C@@H]1CC[C@H]2c3[nH]c4ccccc4c3CCN2C1	ACHN	inactive
CC(OC(C)(C)C)C1NC(=O)C(CCCCNC(=O)OC(C)(C)C)NC(=O)C(Cc2c[nH]c3ccccc23)NC(=O)C(Cc2ccccc2)NC(=O)[C@H]2CCC[C@H]2NC(=O)C(Cc2ccccc2)NC1=O (stereo partly drawn) (cyclo([X26][ξF][ξW][ξK](Boc)[ξT](tBu)[ξF]))	ACHN	inactive
CC(=O)NC1C(OCc2ccccc2)OC(CO)C(O)C1OC(C)C(=O)N[C@@H](C)C(=O)N[C@H](CCC(=O)OCCNc1c2ccccc2nc2cccc([N+](=O)[O-])c12)C(N)=O (stereo partly drawn)	ACHN	active
CC(C)(C)c1ccc(OCCOCCOc2ccc(C(C)(C)C)cc2S(N)(=O)=O)c(S(N)(=O)=O)c1	ACHN	inactive

----------
- Test system: EKVX
- Assay Info: NCI tumour cell line growth inhibition, 48 h
Activity calls are given as the source filed them. Rule as the data show it: active = GI50 up to about 1.1 µM and inactive = higher.
Outcome codes: active, inactive

Compound	Group Label
CC[C@@H](C)[C@H]([C@H](CC(=O)N1CCC[C@@H]1[C@@H](OC)[C@H](C)C(=O)N[C@H](Cc1ccccc1)c1nccs1)OC)N(C)C(=O)[C@H](NC(=O)[C@@H](C(C)C)N(C)C)C(C)C	active
COc1ccc2c(c1)C(=O)CC1c3cnccc3C(=O)N21 (stereo not given)	inactive
CCOC(=O)c1nc2ccc(C(F)(F)F)cc2nc1Oc1ccc(F)cc1	inactive
Cc1cccc(/C=N/C23CC4CC(CC(C4)C2)C3)c1	inactive
Cc1n[nH]c(=O)n1/N=C/c1cccc(Cl)c1	inactive
CC1CCCCNC1=S (stereo not given)	inactive
O=S1(=O)OCCCOS(=O)(=O)C1Br	inactive
COC(=O)C(Cc1ccc(OC)cc1O)NC(=O)OC(C)(C)C (stereo not given)	inactive
CCOP(=O)(OCC)/C(=C\n1ccc(=O)[nH]c1=S)C(=O)OC	inactive
O=C(Nc1ccccc1-c1n[nH]c(S)nc1=O)C(F)(F)F	inactive
CCN(CC)C(=S)SNCCc1ccc(S(N)(=O)=O)cc1	inactive
CC1(C)OC2C(CO)OC(N/C(=N/C#N)Oc3ccccc3)C2O1 (stereo not given)	inactive
O=C1c2ccc3cc(CCl)cc(O)c3c2C(=O)c2cccc(O)c21	inactive
CC(=O)N/N=C1\CC(C)(C)C2CCC1C2 (stereo not given)	inactive
Cc1nc2nnc(CCCCCCCCc3nnc4nc(C)[nH]n34)n2[nH]1	inactive
CC1CC(C)[C@H](O)C([C@H](O)CC2CC(=O)N(C)C(=O)C2)C1 (stereo not given in full)	inactive
O=C(Nc1cccc([N+](=O)[O-])c1)c1nnn(-c2cccc([N+](=O)[O-])c2)c1O	inactive
COC(=O)C1=C(O)C(C(=O)OC)[C@@]2(O)[C@@H](C(=O)OC)C(c3ccc(OC(=O)/C(=C/c4ccccc4)c4ccccc4)cc3)C[C@@H]1[C@@H]2C(=O)OC (stereo not given in full)	inactive
O=C(Nc1ccn(CCOC(=O)c2ccccc2)c(=O)n1)c1ccccc1	inactive
Oc1c(O)c(Cc2ccccc2)c(Cc2ccccc2)c(Cc2ccccc2)c1Cc1ccccc1	inactive
O=C1O/C(=C\C=C\CO)C=C1/C=C/CO [LISSOCLINOLIDE]	inactive
CCOC(=O)CC[C@H](NC(=O)N[C@H](C)c1ccccc1)C(=O)OCC	inactive
COc1ccc2c(c1)CC[C@@H]1[C@@H]2CC[C@]2(C)/C(=N/OCCN3CCCC3)CC[C@@H]12	inactive
COC(=O)C1=C(CCC[C@H](C)O[Si](C)(C)C(C)(C)C)NC(=O)N2[C@@H](CCO)CC[C@H]12	inactive
Cc1ccc(NC(=O)SCCC(=O)O)cc1	inactive
